B1: TPR t1 (parent)
chain: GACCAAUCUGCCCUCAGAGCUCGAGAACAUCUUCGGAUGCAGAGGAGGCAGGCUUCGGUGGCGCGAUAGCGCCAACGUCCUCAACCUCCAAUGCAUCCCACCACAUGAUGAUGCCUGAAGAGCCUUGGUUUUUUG

variants of: B1; test: polymerase ribozyme fitness, log enrichment relative to wild type (log ratio); higher = more active; in vitro selection for triplet polymerase activity
Give 1 (yes) when the value for polymerase ribozyme fitness (log ratio) is at least -3. Give 0 (no) when it is less.

Example results:
U9G G69A
1 (yes)
C20U G69U G120C
1 (yes)
G69U C70G U92C G122A U125A
0 (no)
G60A C114A A121G
1 (yes)
C20A C28G C94U A111G
0 (no)

Let us examine a further case.
polymerase ribozyme fitness (log ratio) >= -3 for A18C G61A ?
1 (yes)
